- TARGET: T1, Recombinant biotinylated human P-Selectin protein (human, UniProt P16109 42-771, limits assumed, biotinylated (site not stated))
- T1 sequence (looked up): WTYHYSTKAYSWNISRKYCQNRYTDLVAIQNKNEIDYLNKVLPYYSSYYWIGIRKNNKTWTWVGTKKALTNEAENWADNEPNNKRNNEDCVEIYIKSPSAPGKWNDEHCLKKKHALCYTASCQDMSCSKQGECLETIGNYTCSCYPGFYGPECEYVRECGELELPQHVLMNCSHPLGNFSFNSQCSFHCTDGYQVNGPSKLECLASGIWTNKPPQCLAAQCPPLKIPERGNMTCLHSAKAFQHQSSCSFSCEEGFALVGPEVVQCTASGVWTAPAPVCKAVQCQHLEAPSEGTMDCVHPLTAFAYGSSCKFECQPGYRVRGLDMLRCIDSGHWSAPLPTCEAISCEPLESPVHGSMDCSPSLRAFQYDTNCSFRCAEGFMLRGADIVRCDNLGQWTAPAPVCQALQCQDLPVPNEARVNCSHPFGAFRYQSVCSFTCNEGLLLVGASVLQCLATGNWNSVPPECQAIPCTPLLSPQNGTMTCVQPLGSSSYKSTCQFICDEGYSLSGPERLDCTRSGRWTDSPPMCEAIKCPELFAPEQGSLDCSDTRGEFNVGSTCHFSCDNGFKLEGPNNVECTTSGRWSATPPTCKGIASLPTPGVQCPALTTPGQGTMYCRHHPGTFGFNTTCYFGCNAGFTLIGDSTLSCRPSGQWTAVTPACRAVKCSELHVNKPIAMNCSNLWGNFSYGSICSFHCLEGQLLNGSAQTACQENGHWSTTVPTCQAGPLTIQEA
- EXPERIMENT DESCRIPTION: inhibition of 5 nM P-selectin binding to HL-60 cells (PSGL1), mirrorball cytometer, geomean of n=3
Starred links: 1 amine or outer side, 2 acyl side, 3 side chain; linkers in the order of their positions; H or OH if unused. Positions of bridges follow the written chain, without caps; N, C: chain ends. Non-standard residues stand in square brackets, D forms with d. TATA = O=C(CC[*:1])N1CN(C(=O)CC[*:2])CN(C(=O)CC[*:3])C1; 1Nal = N[C@@H](Cc1cccc2ccccc12)C(=O)O
Each record here notes measured Inhibition at top concentration (%).
I only need the number, in %, no unit after it.

Data request, read-out Inhibition at top concentration (%), for Ac-ACYME[1Nal]CDVTDYGCA-NH2 (linker 2-7-14 via TATA, Monomeric bicyclic peptide) [BCY11279]
24

Data request, read-out Inhibition at top concentration (%), for SelG1 (Crizanlizumab) (antibody, V domains shown) VH: QVQLVQSGAEVKKPGASVKVSCKVSGYTFTSYDINWVRQAPGKGLEWMGWIYPGDGSIKYNEKFKGRVTMTVDKSTDTAYMELSSLRSEDTAVYYCARRGEYGNYEGAMDYWGQGTLVTVSS VL: DIQMTQSPSSLSASVGDRVTITCKASQSVDYDGHSYMNWYQQKPGKAPKLLIYAASNLESGVPSRFSGSGSGTDFTLTISSLQPEDFATYYCQQSDENPLTFGGGTKVEIK
96
